# assayed.system: recombinant human GST-Syk (Homo sapiens (Human))
# assay.protocol: Homogeneous Time-Resolved Fluorescence (HTRF) assay for the recombinant human Syk enzyme
# condition.summary: recombinant human GST-Syk 5 pM, ATP 25 μM, read-out: rhSyk IC50
measured.endpoint: IC50 (nM)

compound="Cc1cc(Nc2cc(C(F)(F)F)ccn2)nc(-c2ccc(NC3CCN(C(=O)CCN4CCCC4=O)CC3)nc2)c1 [Example 4-11]" measured_endpoint=IC50 assay_result=2
compound="Cc1cc(Nc2cc(C3CC3)ccn2)nc(-c2ccc(C(C)(O)C3CCC(C(=O)O)CC3)nc2)c1 (stereo not shown) [Example 1-32]" measured_endpoint=IC50 assay_result=1
compound="Cc1cc(Nc2cc(C(F)(F)F)ccn2)nc(-c2ccc(NC3CCN(C(=O)c4ccnc5ccccc45)CC3)nc2)c1 [Example 4-66]" measured_endpoint=IC50 assay_result=24
compound="CCCCCCOC(=O)[C@H]1CC[C@H](C(C)(O)c2ccc(-c3cc(C)cc(Nc4cc(C(F)F)ccn4)n3)cn2)CC1 (single isomer, unassigned) [Example 19-9]" measured_endpoint=IC50 assay_result=190
compound="Cc1cc(Nc2cc(C(F)(F)F)ccn2)nc(-c2ccc(NC3CCN(C(=O)c4cccc(Cn5cccn5)c4)CC3)nc2)c1 [Example 4-29]" measured_endpoint=IC50 assay_result=7
compound="Cc1cc(Nc2cc(C(F)(F)F)ccn2)nc(-c2ccc(NC3CCN(C(=O)c4cccc5cc(O)ccc45)CC3)nc2)c1 [Example 4-39]" measured_endpoint=IC50 assay_result=7

I = Cc1cc(Nc2cc(C(F)(F)F)ccn2)nc(-c2ccc(NC3CCN(C(=O)Cc4cccc(Cl)c4)CC3)nc2)c1 [Example 4-107]
II = Cc1cc(Nc2cc(C(F)(F)F)ccn2)nc(-c2ccc(NC3CCN(C(=O)c4cccc(Oc5ccccc5)c4)CC3)nc2)c1 [Example 4-50]
III = Cc1cc(Nc2cc(C(F)(F)F)ccn2)nc(-c2ccc(NC3CCN(C(N)=O)CC3)nc2)c1 [Example 7]
Could you please order the items by IC50, going from the lowest number to the highest? Rank the items, then write their labels in that order.
III, I, II
(III: 4 nM, I: 13 nM, II: 97 nM)
